test system: SNRK; details: concentration: 1 μM, replicates: in singlicate; n = 1;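 also: KINOMEscan kinase panel screen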
ATTRIBUTE MEASURED: %Inh (%)

MOLECULE | MEASUREMENT TARGET | READOUT NUMBER
CCc1ccc(-c2ccc3c(c2)-c2nn(C)cc2S(=O)(=O)N3C)cc1 | SNRK | 0
Nc1n[nH]c2nnc(-c3ccccc3)c(-c3ccccc3)c12 [GW554060] | SNRK | 0
O=C(Nc1n[nH]c2nc(-c3ccccc3)c(Br)cc12)C1CC1 [SB-708998] | SNRK | 18
COc1ccc(-n2cnc3c(N)ncnc32)cc1 [SKF-97236] | SNRK | 0
Nc1n[nH]c2ncc(-c3ccccc3)cc12 [SB-517081] | SNRK | 0
COc1ccc(-c2cc3c(C)nc(N)nc3n([C@H]3CC[C@H](OCCO)CC3)c2=O)cn1 | SNRK | 0
Cl.c1ccc(Cn2cnc3cc(Nc4ncnc5ccccc45)ccc32)cc1 [GW272142] | SNRK | 0
Cc1ccccc1COc1cc(-n2cnc3cc(Cl)ccc32)sc1C(N)=O [GW813349] | SNRK | 3
Cc1nc(N(C)[C@H]2CN(C(=O)CC#N)CC[C@H]2C)c2cc[nH]c2n1 | SNRK | 0
CCC(=O)c1c(-c2ccccc2)c2cc(Cl)ccc2c(=O)n1Cc1cc(S(C)(=O)=O)n(CC(N)=O)n1 | SNRK | 0
Cc1nnc(-c2ccc3ncn(-c4ccc(S(C)=O)cc4)c3c2)o1 (stereo not shown) | SNRK | 0
CCCNC(=O)Nc1ccc(Oc2ncnc3ccn(C)c23)cc1 | SNRK | 0
Cc1nn2c(=O)cc(N3CCOCC3)nc2n1Cc1cccc(Cl)c1Cl [GSK2342769] | SNRK | 0
COc1cc2nccc(Nc3ccc(OCc4ccc(NC(C)=O)cc4)cc3)c2cc1OC.Cl [GW440135] | SNRK | 0
CCC(=O)c1c(-c2ccccc2)c2cc(Cl)ccc2c(=O)n1Cc1cc(S(C)(=O)=O)n(CCC(C)(C)O)n1 | SNRK | 27
COc1ccc(CNC(=O)NC2CCN(c3ccnc(Nc4ccc(F)cc4)n3)C2)cc1 (stereo not shown) [GSK1379706] | SNRK | 0
CCn1c(-c2nonc2N)nc2ccccc21 [SB-693162/GW549034] | SNRK | 40
Cc1c(Cn2c(C)nn3c(=O)cc(N4CCO[C@H](C)C4)nc23)cccc1C(F)(F)F [GSK2373690] | SNRK | 0
COc1cccc(C2=C(N(C)c3ccccc3)C(=O)NC2=O)c1 [SB-334865] | SNRK | 0

These measurements were taken from paper PMC5540273.
